test system: Trypanosoma cruzi; assay: DNDI: Chagas in Vitro; type: functional, organism-based, Tulahuen C4 (LacZ); conditions: Trypanosoma cruzi, Tulahuen C4 (LacZ)
Recorded Endpoint: IC50 (nM)

Worked examples, 6 compounds total:
[
  {
    "Entry Smiles": "CS(=O)(=O)N(Cc1cnc[nH]1)c1cc(F)cc(-c2nc3ccccc3s2)c1",
    "Recorded Endpoint": "IC50",
    "Meas Value": 70
  },
  {
    "Entry Smiles": "CCN(Cc1cccnc1)c1cncc(-c2nc3ccccc3s2)c1",
    "Recorded Endpoint": "IC50",
    "Meas Value": 171
  },
  {
    "Entry Smiles": "O=C(NCCc1cnc[nH]1)c1ccc2cc(Br)ccc2c1",
    "Recorded Endpoint": "IC50",
    "Meas Value": 186
  },
  {
    "Entry Smiles": "CS(=O)(=O)N(Cc1cccnc1)c1ccc(-c2ccc(F)cc2)cc1F",
    "Recorded Endpoint": "IC50",
    "Meas Value": 2
  },
  {
    "Entry Smiles": "CO/N=C(\\C)c1ccc(-n2ccnc2)c(NC(=O)c2cnc(-c3ccccn3)s2)c1",
    "Recorded Endpoint": "IC50",
    "Meas Value": 2.93
  },
  {
    "Entry Smiles": "CO/N=C(\\C)c1ccc(-n2ccnc2)c(NC(=O)c2ccc(-c3cccs3)nc2)c1",
    "Recorded Endpoint": "IC50",
    "Meas Value": 2.7
  }
]

A. CS(=O)(=O)N(Cc1c[nH]cn1)c1ccc(-c2ccc(F)cc2)cc1F
B. CCN(Cc1cnc[nH]1)c1cc(F)cc(-c2nc3ccccc3s2)c1
**Query** So which one has the bigger IC50 here, A or B ? Write down the label attached to your selection.
**Result** B

a. CO/N=C(\C)c1ccc(-n2ccnc2)c(NC(=O)c2cnc(-c3ccccc3)s2)c1
b. CCOC(=O)c1ccc(-n2ccnc2)c(NC(=O)c2cnc(-c3ccccc3)nc2)c1
**Query** Please tell me which of the two, a or b , has the higher reported IC50 value. # reply format: chosen label
**Result** b
(b: 3 nM, a: 0.617 nM)

---

tested on: Leishmania infantum; test: DNDI: Leish (macro) in Vitro; format: functional, organism-based, MHOM/MA(BE)/67; conditions: Leishmania infantum, MHOM/MA(BE)/67
Recorded Endpoint: IC50 (nM)
Response body: numeric value in nM, unit text excluded.

**Query** Sample CN(CC(O)COc1ccc2cc(Br)ccc2c1)C1CCCCC1 (configuration not stated) — what was its IC50?
**Result** 1260

---

assay: DNDI: Protein binding in rat plasma; format: ADME, cell-free; conditions: read-out: % bound (converted)
Recorded Endpoint: fraction unbound

[
  {
    "Entry Smiles": "N#Cc1ccc(-n2ccnc2)c(NC(=O)c2cnc(-c3ccccc3)s2)c1",
    "fraction unbound": 0.043
  }
]

1. CO/N=C(\C)c1ccc(-n2ccnc2)c(NC(=O)c2cnn(-c3ccccn3)c2)c1
2. CO/N=C(\C)c1ccc(-n2ccnc2)c(NC(=O)c2cnc(-c3ccccc3)nc2)c1
**Query** Between item 1 and item 2 , which reported fraction unbound is smaller? Refer to your chosen item by its label in the answer.
**Result** 1

---

test: DNDI: Lipophilicity (gLogD) at pH 7.4; conditions: buffer, pH 7.4, logD
Recorded Endpoint: chromatographic logD

[
  {
    "Entry Smiles": "N#Cc1ccc(-n2ccnc2)c(NC(=O)c2cnc(-c3ccccc3)s2)c1",
    "chromatographic logD": 2.8
  },
  {
    "Entry Smiles": "N#Cc1ccc(-n2ccnc2)c(NC(=O)c2cnc(-c3ccccc3)nc2)c1",
    "chromatographic logD": 2.7
  },
  {
    "Entry Smiles": "CO/N=C(\\C)c1ccc(-n2ccnc2)c(NC(=O)c2ccc(-c3ccccc3)nc2)c1",
    "chromatographic logD": 3.3
  },
  {
    "Entry Smiles": "CO/N=C(\\C)c1ccc(-n2ccnc2)c(NC(=O)c2ccc(-c3ccccn3)s2)c1",
    "chromatographic logD": 3.1
  },
  {
    "Entry Smiles": "CO/N=C(\\C)c1ccc(-n2ccnc2)c(NC(=O)c2cnc(-c3ccccc3)nc2)c1",
    "chromatographic logD": 3.4
  }
]
